From: patent US20240034796A1

Target: T1, human PD-1 protein (human, UniProt Q15116 25-167, limits assumed)
T1 construct: also called human PD-1 antigen
T1 sequence (Q15116 25-167 limits assumed): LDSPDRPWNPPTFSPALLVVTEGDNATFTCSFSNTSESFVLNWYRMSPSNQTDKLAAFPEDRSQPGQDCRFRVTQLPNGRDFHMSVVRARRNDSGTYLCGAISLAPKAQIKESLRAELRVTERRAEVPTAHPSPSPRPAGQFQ
Method summary: SPR, binding kinetics to human PD-1
pKd: −log10 of the molar value.

Binder	pKd
AHF16570 (antibody, V domains shown) VH: QVQLVQSGAEVKKPGASVKVSCKASGYTFTGYWMHWVRQAPGQGLEWIGMIHPNSDTTIYNWKFKNRVTMTRDTSISTAYMELSRLRSDDTAVYYCAGTDQAAWAGFWGQGTTVTVSS VL: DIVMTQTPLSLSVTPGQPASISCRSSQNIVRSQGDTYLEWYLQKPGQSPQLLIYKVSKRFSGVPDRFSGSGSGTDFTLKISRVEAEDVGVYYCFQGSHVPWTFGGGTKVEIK	9.70
